- ASSAY SUMMARY: probe aLefty1 binding on compound microarray – biochemical, small-molecule microarray, 635/667 nm fluorescence, primary screen (AID 1153);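 also: score merges spot fluorescence with signal-to-noise ratio from the scanned slide images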
- ASSAY CONDITIONS: higher = more signal
PROPERTY MEASURED: composite z-score

O=C1N(CCS(=O)(=O)c2ccccc2)c2ccccc2[C@H]2OC(c3ccc(OCCCO)cc3)=N[C@@]12CCS(=O)(=O)c1ccccc1    0.582
C=CCNC(=O)[C@H]1[C@@H]2C(=O)O[C@@H](c3ccccc3)[C@@H](c3ccccc3)N2[C@@H](c2ccc(O)cc2)[C@]12C(=O)N(C(=O)OCCOC)c1ccc(C#CC3(O)CCCCCC3)cc12    0.0313
CC1CC/C=C\[C@H]2OC34C=CCN(Cc5ccccc5)C(=O)[C@H]3N(CCO)C(=O)[C@@H]4C2C(=O)O1 (some centres not stated)    -0.0867
O=c1c2ccc(Br)cc2nc(-c2ccccc2)n1Cc1cccc(O)c1    0.748
CC(C)(C)OC(=O)CC[C@@]1(C(=O)N2CCCCC2)N=C(c2ccc(OCCCO)cc2)O[C@@H]1c1ccccc1N=[N+]=[N-]    0.432
O=C1c2ccccc2[C@](Cc2ccccc2I)(C(=O)NC2CC2)[C@H](c2ccc(CO)cc2)N1Cc1ccccc1Cl    0.44
COCCCNC(=O)[C@]1(CCS(=O)(=O)c2ccccc2)N=C(c2ccc(OCCCO)cc2)O[C@@H]1c1ccccc1    1.12
